Can you tell me GI50 for the items I'm about to list?
System: COLO 205
Assay: NCI tumour cell line growth inhibition, 48 h
The source made the active and inactive calls. Rule as the data show it: active = GI50 up to about 1.1 µM and inactive = higher.

Enquiry: Form entry - test system: COLO 205; read-out: GI50; compound: c1ccc(CN[C@]23C4C5CC6C7C5C2C7[C@@](NCc2ccccc2)(C64)N3Cc2ccccc2)cc1 (stereo not given in full)
Return: > 100 µM (inactive)

Enquiry: Form entry - test system: COLO 205; read-out: GI50; compound: N#C/C(=C\c1cc(Br)c(O)c(Br)c1)c1cccnc1
Return: 22.8 µM (inactive)

Enquiry: Form entry - test system: COLO 205; read-out: GI50; compound: CCOC(=O)c1sc2nc(SC)nc3c2c1NCN3C1CC1
Return: > 100 µM (inactive)

Enquiry: Form entry - test system: COLO 205; read-out: GI50; compound: CC(=O)NC1C(OCc2ccccc2)OC(CO)C(O)C1OCC(=O)N1CCCC1C(=O)N[C@@H](CCC(=O)NCCNCCNc1c2ccccc2nc2cccc([N+](=O)[O-])c12)C(N)=O (stereo not given in full)
Return: 1.88 µM (inactive)

Enquiry: Form entry - test system: COLO 205; read-out: GI50; compound: COc1ccc2c(c1)-c1c(c3cc(OC)ccc3n1CCCN(C)C)CC2
Return: 2.02 µM (inactive)
